Biological target: hα2C receptor (Homo sapiens, UniProt P18825)
Construct: expressed in transfected cells; host or cells: CHO cells, stably transfected; membrane preparation
Sequence (P18825 whole entry): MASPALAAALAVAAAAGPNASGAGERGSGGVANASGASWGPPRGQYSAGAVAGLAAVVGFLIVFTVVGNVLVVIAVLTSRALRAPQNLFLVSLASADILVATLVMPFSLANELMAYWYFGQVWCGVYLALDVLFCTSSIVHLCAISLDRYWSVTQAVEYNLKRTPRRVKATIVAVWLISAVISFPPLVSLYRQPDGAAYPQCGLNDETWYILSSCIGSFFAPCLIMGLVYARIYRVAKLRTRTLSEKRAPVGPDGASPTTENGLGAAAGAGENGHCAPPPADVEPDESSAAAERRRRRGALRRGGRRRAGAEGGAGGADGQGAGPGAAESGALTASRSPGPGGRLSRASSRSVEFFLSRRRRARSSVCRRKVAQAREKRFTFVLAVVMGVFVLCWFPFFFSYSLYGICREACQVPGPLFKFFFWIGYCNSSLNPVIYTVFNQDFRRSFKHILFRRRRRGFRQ
Assay: Radioligand binding experiment for α2C-adrenoceptor ([3H]raulwolscine, CHO cell membranes)
Settings: [3H]raulwolscine binding
value.kind: h-α2C pIC50

>>> endpoint_value("C/C(=C\\c1ccccc1)CN1CCC(Nc2nccn(-c3ccc(CNC(=O)c4ccc(F)cc4)cc3)c2=O)CC1")
8.3
>>> endpoint_value("C/C(=C\\c1ccccc1)CN1CCC(Nc2nccn(-c3ccc(CNC(=O)OC(C)(C)C)cc3)c2=O)CC1")
7.7
>>> endpoint_value("C/C(=C\\c1ccccc1)CN1CCC(Nc2nccn(-c3cccc(CN(C)CCN(C)C)c3)c2=O)CC1")
8.6
>>> endpoint_value("CCOC(=O)N1CCC(NCc2ccc(-n3ccnc(NC4CCN(C/C(C)=C/c5ccccc5)CC4)c3=O)cc2)CC1")
7.9
>>> endpoint_value("C/C(=C\\c1ccccc1)CN1CCC(Nc2nccn(CC(=O)O)c2=O)CC1")
7.4
>>> endpoint_value("CCN(CC)C(=O)NCc1ccc(-n2ccnc(NC3CCN(C/C(C)=C/c4ccccc4)CC3)c2=O)cc1")
8.3
>>> endpoint_value("C/C(=C\\c1ccccc1)CN1CCC(Nc2nccn(-c3ccc(CNCC4CCCO4)cc3)c2=O)CC1 (centres unmarked)")
8.6
>>> endpoint_value("CC(=O)N1CCN(Cc2ccc(-n3ccnc(NC4CCN(C/C(C)=C/c5ccccc5)CC4)c3=O)cc2)CC1")
7.4
>>> endpoint_value("COC(=O)CN(C)Cc1cccc(-n2ccnc(NC3CCN(C/C(C)=C/c4ccccc4)CC3)c2=O)c1")
8.9
>>> endpoint_value("COC(=O)CCNCc1ccc(-n2ccnc(NC3CCN(C/C(C)=C/c4ccccc4)CC3)c2=O)cc1")
8.6
>>> endpoint_value("C/C(=C\\c1ccccc1)CN1CCC(Nc2nccn(-c3cccc(CNCCN4CCOCC4)c3)c2=O)CC1")
8.4
>>> endpoint_value("C/C(=C\\c1ccccc1)CN1CCC(Nc2nccn(-c3cccc(CNCCN(C)C)c3)c2=O)CC1")
8.8
>>> endpoint_value("C/C(=C\\c1ccccc1)CN1CCC(Nc2nccn(-c3cccc(CNCCCN4CCCC4=O)c3)c2=O)CC1")
8.7
>>> endpoint_value("C/C(=C\\c1ccccc1)CN1CCC(Nc2nccn(-c3cccc(CNCCN4CCCC4)c3)c2=O)CC1")
8.8
>>> endpoint_value("C/C(=C\\c1ccccc1)CN1CCC(Nc2nccn(-c3cccc(CN(C)Cc4ccccc4)c3)c2=O)CC1")
8.6
>>> endpoint_value("COC(=O)CCNCc1cccc(-n2ccnc(NC3CCN(C/C(C)=C/c4ccccc4)CC3)c2=O)c1")
8.9
>>> endpoint_value("COCCN(C)Cc1ccc(-n2ccnc(NC3CCN(C/C(C)=C/c4ccccc4)CC3)c2=O)cc1")
8.7
>>> endpoint_value("C/C(=C\\c1ccccc1)CN1CCC(Nc2nccn(-c3ccc(CN4C(=O)c5ccccc5C4=O)cc3)c2=O)CC1")
8.0
>>> endpoint_value("C/C(=C\\c1ccccc1)CN1CCC(Nc2nccn(-c3ccc(CO)cc3)c2=O)CC1")
7.8
>>> endpoint_value("C/C(=C\\c1ccccc1)CN1CCC(Nc2nccn(-c3ccc(CNC(=O)c4ccno4)cc3)c2=O)CC1")
8.9
>>> endpoint_value("CCCNCc1cccc(-n2ccnc(NC3CCN(C/C(C)=C/c4ccccc4)CC3)c2=O)c1")
9.0
>>> endpoint_value("CCOC(=O)N1CCC(NCc2cccc(-n3ccnc(NC4CCN(C/C(C)=C/c5ccccc5)CC4)c3=O)c2)CC1")
8.0
>>> endpoint_value("CC(=O)NCc1ccc(-n2ccnc(NC3CCN(C/C(C)=C/c4ccccc4)CC3)c2=O)cc1")
8.1

Values from patent US20090111801A1
